Origin of values: paper PMC1838525

Biological target: Vam7p PX domain (Saccharomyces cerevisiae)
Sequence (P32912 2-122): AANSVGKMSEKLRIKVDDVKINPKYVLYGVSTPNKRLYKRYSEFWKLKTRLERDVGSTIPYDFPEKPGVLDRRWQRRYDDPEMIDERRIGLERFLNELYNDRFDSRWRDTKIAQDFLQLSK
quantity-measured: pKd
One number for each entry, as −log10 of the molar value.

Data request: Note pKd for the compound shown: CCCC(=O)OC[C@H](COP(=O)(O)O[C@@H]1[C@H](O)[C@H](OP(=O)(O)O)[C@@H](O)[C@H](O)[C@H]1O)OC(=O)CCC
Data returned: 3.52
